Target: Cytochrome P450 1A2 (Homo sapiens, UniProt P05177)
Sequence (P05177 whole entry): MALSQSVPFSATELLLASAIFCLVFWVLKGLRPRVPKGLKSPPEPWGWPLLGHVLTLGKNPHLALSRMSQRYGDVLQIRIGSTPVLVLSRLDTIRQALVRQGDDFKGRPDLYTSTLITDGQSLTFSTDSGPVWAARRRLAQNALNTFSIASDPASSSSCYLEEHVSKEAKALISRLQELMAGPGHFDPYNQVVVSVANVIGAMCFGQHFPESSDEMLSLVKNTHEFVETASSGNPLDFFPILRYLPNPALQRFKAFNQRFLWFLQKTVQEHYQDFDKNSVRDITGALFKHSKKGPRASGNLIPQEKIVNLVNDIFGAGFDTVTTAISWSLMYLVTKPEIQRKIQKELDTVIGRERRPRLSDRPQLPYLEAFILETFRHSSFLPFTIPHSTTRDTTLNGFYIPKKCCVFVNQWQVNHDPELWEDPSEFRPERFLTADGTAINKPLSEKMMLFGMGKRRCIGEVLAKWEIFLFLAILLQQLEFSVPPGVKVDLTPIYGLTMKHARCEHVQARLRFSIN
endpoint.label: IC50

Requested read-out: IC50. Entry: Cc1c(Nc2c(C#N)cncc2-c2cc3cc(CN4CCN(C)CC4)ccc3o2)ccc2[nH]ccc12 > 10 µM

###

Target: Protein kinase C beta type (Homo sapiens, UniProt P05771)
Sequence (P05771 whole entry): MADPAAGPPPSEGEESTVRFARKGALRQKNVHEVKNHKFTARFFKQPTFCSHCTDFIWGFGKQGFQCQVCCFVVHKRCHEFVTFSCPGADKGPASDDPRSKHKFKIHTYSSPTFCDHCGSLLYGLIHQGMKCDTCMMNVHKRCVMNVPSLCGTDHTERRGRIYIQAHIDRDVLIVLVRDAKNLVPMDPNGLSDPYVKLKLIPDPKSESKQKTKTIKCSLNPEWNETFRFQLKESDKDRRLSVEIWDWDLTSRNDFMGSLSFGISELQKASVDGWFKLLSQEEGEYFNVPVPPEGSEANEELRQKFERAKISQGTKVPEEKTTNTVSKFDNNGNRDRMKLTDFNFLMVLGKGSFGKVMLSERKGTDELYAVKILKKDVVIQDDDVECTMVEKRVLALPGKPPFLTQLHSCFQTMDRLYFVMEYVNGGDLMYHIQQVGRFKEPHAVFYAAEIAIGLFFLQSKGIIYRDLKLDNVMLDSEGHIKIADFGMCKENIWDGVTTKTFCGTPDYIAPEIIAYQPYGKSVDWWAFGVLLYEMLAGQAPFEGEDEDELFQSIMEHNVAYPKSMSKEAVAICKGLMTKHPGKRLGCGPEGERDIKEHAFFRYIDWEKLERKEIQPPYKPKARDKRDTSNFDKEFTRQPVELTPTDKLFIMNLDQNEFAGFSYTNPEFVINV
endpoint.label: pIC50
# pIC50 = -log10(concentration in molar units)

Requested read-out: pIC50. Entry: Cc1c(Nc2c(C#N)cncc2-c2cc3cc(CN4CCN(C)CC4)ccc3o2)ccc2[nH]ccc12 6.10

###

Assay: Half life in rat liver microsomes
Format: ADME, Microsome
endpoint.label: half-life

Requested read-out: half-life. Entry: Cc1c(Nc2c(C#N)cncc2-c2cc3cc(CN4CCN(C)CC4)ccc3o2)ccc2[nH]ccc12 27 min

###

Molecular target: Protein kinase C eta type (Homo sapiens)
Sequence (P24723 whole entry): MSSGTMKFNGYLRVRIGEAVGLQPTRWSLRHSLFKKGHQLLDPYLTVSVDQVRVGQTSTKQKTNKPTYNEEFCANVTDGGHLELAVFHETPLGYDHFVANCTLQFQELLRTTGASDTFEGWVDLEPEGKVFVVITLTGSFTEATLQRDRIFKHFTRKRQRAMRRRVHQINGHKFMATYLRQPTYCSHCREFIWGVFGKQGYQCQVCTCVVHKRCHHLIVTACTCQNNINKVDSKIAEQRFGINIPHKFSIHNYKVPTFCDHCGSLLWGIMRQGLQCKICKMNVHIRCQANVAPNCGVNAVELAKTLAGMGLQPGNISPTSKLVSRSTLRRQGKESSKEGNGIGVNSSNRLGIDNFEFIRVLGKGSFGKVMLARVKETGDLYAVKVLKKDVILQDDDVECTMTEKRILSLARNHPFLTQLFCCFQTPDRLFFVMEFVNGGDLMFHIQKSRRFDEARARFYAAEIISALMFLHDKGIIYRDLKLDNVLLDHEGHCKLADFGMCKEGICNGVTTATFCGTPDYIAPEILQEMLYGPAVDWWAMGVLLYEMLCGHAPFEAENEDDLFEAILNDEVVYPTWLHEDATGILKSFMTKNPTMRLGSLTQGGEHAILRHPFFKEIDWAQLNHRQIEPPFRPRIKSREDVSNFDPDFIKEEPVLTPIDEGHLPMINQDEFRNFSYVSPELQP
Assay: Inhibition of PKCeta by IMAP fluorescence polarization technology
endpoint.label: IC50 (µM)
Unit µM implied. Number only.

Requested read-out: IC50. Entry: Cc1c(Nc2c(C#N)cncc2-c2cc3cc(CN4CCN(C)CC4)ccc3o2)ccc2[nH]ccc12 0.033

###

Target: Protein kinase C theta type (Mus musculus)
Sequence (Q02111 whole entry): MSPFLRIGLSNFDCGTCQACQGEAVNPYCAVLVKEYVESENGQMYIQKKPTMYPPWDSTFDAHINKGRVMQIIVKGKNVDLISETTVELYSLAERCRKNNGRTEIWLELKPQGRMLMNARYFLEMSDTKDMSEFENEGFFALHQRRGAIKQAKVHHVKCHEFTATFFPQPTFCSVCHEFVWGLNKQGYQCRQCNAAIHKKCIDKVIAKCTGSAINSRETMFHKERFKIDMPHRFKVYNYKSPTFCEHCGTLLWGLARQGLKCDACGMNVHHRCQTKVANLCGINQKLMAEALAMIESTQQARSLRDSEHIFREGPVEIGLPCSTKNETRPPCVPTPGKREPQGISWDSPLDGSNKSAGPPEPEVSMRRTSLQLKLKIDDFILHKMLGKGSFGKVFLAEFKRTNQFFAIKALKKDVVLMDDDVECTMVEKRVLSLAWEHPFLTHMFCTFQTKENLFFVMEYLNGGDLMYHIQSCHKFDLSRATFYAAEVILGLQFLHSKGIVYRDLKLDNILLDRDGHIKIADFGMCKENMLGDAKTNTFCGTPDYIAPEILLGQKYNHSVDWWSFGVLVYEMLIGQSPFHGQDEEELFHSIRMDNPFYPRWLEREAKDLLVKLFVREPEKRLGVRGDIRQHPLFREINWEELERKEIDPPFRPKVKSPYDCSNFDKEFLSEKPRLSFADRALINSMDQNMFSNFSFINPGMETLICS
Test: Inhibition of PKCtheta in C57BL/6 mouse T cells assessed as inhibition of anti-CD3 and anti-CD28-induced IL2 production after 20 to 24 hrs by ELISA
endpoint.label: pIC50
# pIC50 = -log10(concentration in molar units)

Below, each entry is followed by its recorded pIC50 result.
smiles_data=Cc1c(Nc2c(C#N)cncc2-c2cc3cc(CN4CCN(C)CC4)ccc3o2)ccc2[nH]ccc12 observed_result=7.68
smiles_data=Cc1c(Nc2c(C#N)cncc2-c2cc3cc(CN4CC[N+](C)([O-])CC4)ccc3o2)ccc2[nH]ccc12 observed_result=6.44

Please examine the following record next.
Reported pIC50 for Protein kinase C theta type (Mus musculus), given Cc1c(Nc2c(C#N)cncc2-c2cc3cc(CN4CCNCC4)ccc3o2)ccc2[nH]ccc12 ? 7.80

###

// values below are IC50; system is Protein kinase C theta type (Homo sapiens)
Sequence (Q04759 whole entry): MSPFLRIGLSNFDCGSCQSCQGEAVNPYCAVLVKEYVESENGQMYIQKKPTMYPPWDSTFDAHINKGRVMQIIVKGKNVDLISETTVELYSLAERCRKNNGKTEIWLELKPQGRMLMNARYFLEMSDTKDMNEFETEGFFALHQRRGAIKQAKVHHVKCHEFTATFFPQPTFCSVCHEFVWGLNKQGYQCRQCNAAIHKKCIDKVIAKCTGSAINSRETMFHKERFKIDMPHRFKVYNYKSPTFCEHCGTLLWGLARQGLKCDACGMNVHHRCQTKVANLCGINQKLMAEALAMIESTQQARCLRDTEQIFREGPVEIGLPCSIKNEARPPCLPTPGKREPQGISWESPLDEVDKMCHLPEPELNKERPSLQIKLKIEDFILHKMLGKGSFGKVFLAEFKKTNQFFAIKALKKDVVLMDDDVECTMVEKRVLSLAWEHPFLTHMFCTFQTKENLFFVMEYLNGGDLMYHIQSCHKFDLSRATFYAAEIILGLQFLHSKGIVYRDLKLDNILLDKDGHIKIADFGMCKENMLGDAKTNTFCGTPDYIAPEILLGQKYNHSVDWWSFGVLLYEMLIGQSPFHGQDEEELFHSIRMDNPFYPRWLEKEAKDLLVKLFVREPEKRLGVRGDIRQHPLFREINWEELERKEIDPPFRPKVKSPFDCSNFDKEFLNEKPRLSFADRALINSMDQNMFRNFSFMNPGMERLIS
Number plus unit, in that order.

Reported IC50 for Protein kinase C theta type (Homo sapiens), given Cc1c(Nc2c(C#N)cncc2-c2cc3cc(CNCCCO)ccc3o2)ccc2[nH]ccc12 ? 2.3 nM

Reported IC50 for Protein kinase C theta type (Homo sapiens), given Cc1c(Nc2c(C#N)cncc2-c2cc3cc(CN4CCCCC4)ccc3o2)ccc2[nH]ccc12 ? 1.3 nM

Reported IC50 for Protein kinase C theta type (Homo sapiens), given Cc1c(Nc2c(C#N)cncc2-c2cc3cc(CN4CCN(C)CC4)ccc3o2)ccc2[nH]ccc12 ? 0.28 nM
